- Test system: rodent lifetime carcinogenesis bioassay, tumor incidence TD50
- assay_name: carcinogenic potency in animals, long-term in vivo studies, CPDB compilation (AID 1745844)
- details: rat; strain Sprague-Dawley; both sexes; in feed; site: liver; lesion: liver-cell adenoma; dosed 130 weeks; study length 130 weeks
Activity calls are given as the source filed them. How the calls were made is not given here.
measured_quantity: TD50

smiles_entry	measured_quantity	result
NC1CCCCC1	TD50	14500 mg/kg/day (inactive)

###

- Test system: rodent lifetime carcinogenesis bioassay, tumor incidence TD50
- assay_name: carcinogenic potency in animals, long-term in vivo studies, CPDB compilation (AID 1745844)
- details: rat; strain Fischer 344; males; in feed; site: any site (literature study); lesion: several types; types named in the paper; dosed 105 weeks; study length 105 weeks
Active and inactive are the calls of the source. No rule for the calls is given here.

smiles_entry	TD50
Nc1ccc(N)c(Cl)c1	244 mg/kg/day (inactive)
Clc1cccc(-c2ccc(Cl)c(Cl)c2Cl)c1Cl	3.23 mg/kg/day

###

# Lookup of reported TD50 keyed by entry
- System: rodent lifetime carcinogenesis bioassay, tumor incidence TD50
- assay_name: carcinogenic potency in animals, long-term in vivo studies, CPDB compilation (AID 1745844)
- details: mouse; strain C3HeB/FeJ; males; in feed; site: lung; lesion: several types; types named in the paper; dosed 104 weeks; study length 104 weeks
measured_quantity: TD50 (mg/kg/day)

smiles_entry	readout_number
CCN(Cc1cccc(S(=O)(=O)O)c1)c1ccc(C(=C2C=CC(=[N+](CC)Cc3cccc(S(=O)(=O)[O-])c3)C=C2)c2ccccc2)cc1	59200
CCN(Cc1cccc(S(=O)(=O)O)c1)c1ccc(C(=C2C=CC(=[N+](CC)Cc3cccc(S(=O)(=O)[O-])c3)C=C2)c2ccc(S(=O)(=O)O)cc2)cc1	58200

###

- Test system: rodent lifetime carcinogenesis bioassay, tumor incidence TD50
- assay_name: carcinogenic potency in animals, long-term in vivo studies, CPDB compilation (AID 1745844)
- details: rat; strain Donryu; males; in drinking water; site: all sites; lesion: myelocytic leukemia; dosed 65 weeks; study length 65 weeks
measured_quantity: TD50

smiles_entry	target_desc	result
CCCCCN(N=O)C(N)=O	rodent lifetime carcinogenesis bioassay, tumor incidence TD50	9.17 mg/kg/day

###

- System: rodent lifetime carcinogenesis bioassay, tumor incidence TD50
- assay_name: carcinogenic potency in animals, long-term in vivo studies, CPDB compilation (AID 1745844)
- details: rat; strain Fischer 344; males; by gavage; site: liver; lesion: hepatocellular adenoma + hepatocellular carcinoma + neoplastic nodule; dosed 77 weeks; study length 109 weeks
measured_quantity: TD50

smiles_entry	target_desc	result
COc1ccc(N)c(C)c1	rodent lifetime carcinogenesis bioassay, tumor incidence TD50	506 mg/kg/day

###

- System: rodent lifetime carcinogenesis bioassay, tumor incidence TD50
- assay_name: carcinogenic potency in animals, long-term in vivo studies, CPDB compilation (AID 1745844)
- details: rat; strain Fischer 344; females; in feed; site: thyroid gland; lesion: follicular-cell carcinoma; dosed 77 weeks; study length 106 weeks

smiles_entry	TD50
CNC(=S)N(C)C	45 mg/kg/day

###

- Tested on: rodent lifetime carcinogenesis bioassay, tumor incidence TD50
- assay_name: carcinogenic potency in animals, long-term in vivo studies, CPDB compilation (AID 1745844)
- details: rat; strain Fischer 344; males; by gavage; site: lung; lesion: one or several types; types not named; dosed 37 weeks; study length 102 weeks
measured_quantity: TD50 (mg/kg/day)

smiles_entry	readout_number
CCNC(=O)N(C=O)CCN(C)C	2.37

###

- Tested on: rodent lifetime carcinogenesis bioassay, tumor incidence TD50
- assay_name: carcinogenic potency in animals, long-term in vivo studies, CPDB compilation (AID 1745844)
- details: mouse; strain B6AKF1; females; oral dosing; site: any site (literature study); lesion: several types; types named in the paper; dosed 76 weeks; study length 76 weeks
The source made the active and inactive calls. How the calls were made is not given here.

molecule	TD50
O=C1NCCN1	473 mg/kg/day (inactive)
CCN(CC)C(=S)SSC(=S)N(CC)CC	1940 mg/kg/day
NC(=O)Cc1cccc2ccccc12	956 mg/kg/day (inactive)
S=C=Nc1ccccc1	39.4 mg/kg/day (inactive)
O=S(=O)(Oc1ccc(Cl)cc1Cl)c1ccccc1	867 mg/kg/day (inactive)
CCCOC(=O)C1c2cc3c(cc2CC(C)C1C(=O)OCCC)OCO3 (stereo not drawn)	4390 mg/kg/day (inactive)
S=C([S-])NCCNC(=S)[S-].[Mn+2]	138 mg/kg/day (inactive)
O=[N+]([O-])c1cc([N+](=O)[O-])c(Cl)c(Cl)c1Cl	52.6 mg/kg/day
[Cu+2].[O-]c1cccc2cccnc12.[O-]c1cccc2cccnc12	2490 mg/kg/day (inactive)
CCCCN(CCCC)C(=S)[S-].CCCCN(CCCC)C(=S)[S-].[Ni+2]	0.185 mg/kg/day (inactive)
c1ccc2sc(SN3CCOCC3)nc2c1	1310 mg/kg/day (inactive)
c1ccc2sc(SSc3nc4ccccc4s3)nc2c1	1380 mg/kg/day (inactive)
Clc1ccc(C(c2ccccc2Cl)C(Cl)Cl)cc1 (stereo not drawn)	102 mg/kg/day

###

- Test system: rodent lifetime carcinogenesis bioassay, tumor incidence TD50
- assay_name: carcinogenic potency in animals, long-term in vivo studies, CPDB compilation (AID 1745844)
- details: mouse; strain Swiss; males; in drinking water; site: forestomach; lesion: acanthoma; dosed 78 weeks; study length 135 weeks
measured_quantity: TD50

smiles_entry	result
C=COC(C)=O	9330 mg/kg/day

###

- Tested on: rodent lifetime carcinogenesis bioassay, tumor incidence TD50
- assay_name: carcinogenic potency in animals, long-term in vivo studies, CPDB compilation (AID 1745844)
- details: mouse; strain Swiss; females; in drinking water; site: bile duct; lesion: cholangioma; dosed 62 weeks; study length 62 weeks

smiles_entry	target_desc	TD50 (mg/kg/day)
CNN	rodent lifetime carcinogenesis bioassay, tumor incidence TD50	29.2

###

- Test system: rodent lifetime carcinogenesis bioassay, tumor incidence TD50
- assay_name: carcinogenic potency in animals, long-term in vivo studies, CPDB compilation (AID 1745844)
- details: mouse; strain Swiss albino; females; by gavage; site: mammary gland; lesion: adenocarcinoma; dosed 95 weeks; study length 95 weeks
measured_quantity: TD50

smiles_entry	measured_quantity	result
C[C@H]([C@H](O)CCC(C)(C)O)[C@H]1CC[C@@]2(O)C3=CC(=O)[C@@H]4C[C@@H](O)[C@@H](O)C[C@]4(C)[C@H]3CC[C@]12C	TD50	0.0264 mg/kg/day

###

- Test system: rodent lifetime carcinogenesis bioassay, tumor incidence TD50
- assay_name: carcinogenic potency in animals, long-term in vivo studies, CPDB compilation (AID 1745844)
- details: rat; strain Fischer 344; males; in feed; site: ear canal + ear + Zymbal's gland; lesion: sebaceous adenocarcinoma + squamous-cell carcinoma; dosed 78 weeks; study length 107 weeks

smiles_entry	TD50
COc1ccc(N)cc1N	709 mg/kg/day

###

Entries and their TD50 values follow.
- System: rodent lifetime carcinogenesis bioassay, tumor incidence TD50
- assay_name: carcinogenic potency in animals, long-term in vivo studies, CPDB compilation (AID 1745844)
- details: mouse; strain B6C3F1; males; in feed; site: any site (literature study); lesion: several types; types named in the paper; dosed 103 weeks; study length 104 weeks
Calls of active or inactive are those of the source. The rule behind the calls is not given here.
measured_quantity: TD50

compound	measured_quantity	result
CC1CCC(C(C)C)C(O)C1 (stereo unspecified)	TD50	2750 mg/kg/day (inactive)
COc1ccccc1[N+](=O)[O-]	TD50	43500 mg/kg/day
NC(=O)NN=Cc1ccc([N+](=O)[O-])o1	TD50	89.3 mg/kg/day
Nc1ccc(/C=C/c2ccc(N)c(S(=O)(=O)O)c2)c(S(=O)(=O)O)c1	TD50	12900 mg/kg/day
Cc1cc(N=Nc2c(O)ccc3ccccc23)c(S(=O)(=O)O)cc1Cl	TD50	2120 mg/kg/day (inactive)
Nc1ccccc1-c1ccccc1	TD50	720 mg/kg/day
O=P(OCC(Br)CBr)(OCC(Br)CBr)OCC(Br)CBr (stereo unspecified)	TD50	2220 mg/kg/day
CC(=O)Nc1ccc(N=Nc2cc(C)ccc2O)cc1	TD50	17200 mg/kg/day
CNc1ccc(N(CCO)CCO)cc1[N+](=O)[O-]	TD50	561 mg/kg/day
COc1ccc(N)c(OC)c1	TD50	1650 mg/kg/day (inactive)
N=C1C=CC(=C(c2ccc(N)cc2)c2ccc(N)cc2)C=C1	TD50	222 mg/kg/day

###

- Test system: rodent lifetime carcinogenesis bioassay, tumor incidence TD50
- assay_name: carcinogenic potency in animals, long-term in vivo studies, CPDB compilation (AID 1745844)
- details: rat; strain Fischer 344; males; in feed; site: urinary bladder; lesion: transitional-cell carcinoma; dosed 103 weeks; study length 105 weeks

smiles_entry	TD50
Nc1ccc(O)c([N+](=O)[O-])c1	309 mg/kg/day
Nc1nc(N)nc(N)n1	735 mg/kg/day

###

List of TD50 values.
- System: rodent lifetime carcinogenesis bioassay, tumor incidence TD50
- assay_name: carcinogenic potency in animals, long-term in vivo studies, CPDB compilation (AID 1745844)
- details: mouse; strain B6C3F1; females; by gavage; site: liver; lesion: hepatocellular adenoma + hepatocellular carcinoma + neoplastic nodule; dosed 103 weeks; study length 106 weeks
measured_quantity: TD50 (mg/kg/day)

smiles_entry	readout_number
C=CCOC(=O)c1ccccc1C(=O)OCC=C	2930
BrC(Br)Br	570

Taken from PubChem BioAssay AID1745844.
